measured-on: T1, cyno primate IL-17A (cyno primate, UniProt A0A2K5TTB0 24-155)
T1 construct: Antigen of the primate crossreactivity ELISA; construct not described; also called Cy IL-17
experiment: ELISA, binding to cyno IL-17A
Provide the recorded EC50 for the entries that follow.
Give a bare numeral; the unit nM is implied.

Prompt line: Write down EC50 measured for item 22E2G4 (antibody, mouse IgG1, V domains shown, amino acids 1-19 are stated as the leader; also called A3) VH: QVQLQQPGAELVMPGTSVRLSCKASGYTFTSYWMHWVKQRPGQGLEWIGEIDPSDTYTNYNPKFKGKATLTVDKSSSTAYMQFTSLTSEDSAVYYCARSGIYYDYYEDYWGQGTTLTVSS VL: DVVMTQTPLSLPVSLGDQASISCRSSQILLHSNGNTYLHWYLQKPGQSPKLLIYKVSNRFSGVPDRFSGSGSGTDFTLKISRVEAEDLGVYFCSQSVHVPTFGGGTKLEIK
Response line: 0.013

Prompt line: Write down EC50 measured for item 23A4D8 (antibody, mouse IgG2a, V domains shown, also called Murine 23A4D8; parental) VH: EVQLQQSGPELVKPGASVKISCKASGFTFTDYYMNWMKQSHGKSLEWIGDINPKNGGTIFNQNFRGKATLTVDKSSSTAYMELRSLTSEDSAVYYCARSILTGPFYFDYWGQGTTLTVSS VL: DIVLTQSPASLAVSLGQRAIISCKASQSVSFAGTGLMHWYQQKSGQQPKLLISRASNLEAGVPTRFSGSGSRTDFTLNIHPVEEDDAATYYCQQTMEYPTFGGGTKLEIK
Response line: 0.004

Prompt line: Write down EC50 measured for item 26G11B11 (antibody, mouse IgG1, V domains shown, amino acids 1-19 are stated as the leader; also called A6) VH: QVQLQQPGAELVMPGASVKLSCKAAGYTFTSYWMHWVKQRPGQGLEWIGEIDPSDSYTNYNQKFKGKATLTVDKSSSTAYMQLSSLTSEDSAVYYCARSGIYYDYYEDYWGQGTTLTVSS VL: DVVMTQTPLSLPVSLGDQASISCRSSQSLVHSNGNTYLHWYLQKPGQSPKLLIYKVSNRFSGVPDRFSGSGSGTDFTLKISRVEAEDLGVYFCSQSIHVPTFGGGTKLEIK
Response line: 0.012
